meta.source: patent US20240392013A1

Molecular target: T1, recombinant human IL1RAP protein, extracellular domain His-tagged (Sino Biological, Cat #10121-H08H) (human, UniProt Q9NPH3 21-367)
T1 construct: extracellular domain; Bought protein; The Octet analyte is printed as huIL1RAP-His (Sino Biological, lot MB08MA1301) without a catalogue number; also called huIL1RAP-His; hIL1RAP; not shown: His tag
T1 sequence (looked up): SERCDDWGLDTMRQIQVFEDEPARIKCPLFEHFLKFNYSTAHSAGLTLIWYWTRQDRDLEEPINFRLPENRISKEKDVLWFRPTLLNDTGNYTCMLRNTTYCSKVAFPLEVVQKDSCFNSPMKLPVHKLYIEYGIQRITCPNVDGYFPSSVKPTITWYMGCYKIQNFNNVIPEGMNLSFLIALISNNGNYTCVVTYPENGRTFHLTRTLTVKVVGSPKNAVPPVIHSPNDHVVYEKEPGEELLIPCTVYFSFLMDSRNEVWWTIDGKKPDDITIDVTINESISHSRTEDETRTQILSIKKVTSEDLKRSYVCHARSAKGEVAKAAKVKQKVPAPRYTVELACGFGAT
Test: Octet BLI; mAb captured on anti-mouse IgG Fc sensor; huIL1RAP-His analyte
metric_name: Response
# print the numeric value only

Qu. What does the data say about its Response? Entry: STLX2027 (antibody, V domains shown, Purified from hybridoma of immunized Alivamab mice; intact IgG; captured on anti-mouse IgG Fc sensors in Octet; lambda light chain; also called 74804_27I24A) VH: EVQLVESGGGLVKPGGSLRLSCAASGFTFITYSMNWVRQAPGKGLEWVSSISSISSYIYYADSVKGRFTISRDNAKNSLYLQMDSLRAEDSAVYYCAREGIVGPTGYFDSWGQGTLVTVSS VL: QSVLTQPPSVSAAPGQKVTISCSGSSSNIGNHYVSWYQQLPGTAPKLLIYDNNKRPSGIPDRFSGSKSGTSATLGITGLQTGDEADYYCGTWDSRLSAYWVFGGGTKLTVL
Ans. 0.229
